In this section we review reported glycan array binding signal (z-score) values for a set of binders.
Molecular target: Neu5Gc(a2-8)Neu5Gc(a2-3)Gal(b1-4)GlcNAc
Assay: glycan array binding signal (z-score within array); higher = stronger binding
Details: glycan notation: IUPAC condensed, linker removed
Many of the other results were omitted from the sample, so the strongest signals are more common in it than they were.
quantityKind: glycan array binding signal (z-score)

{"binder": "CBP21 (Serratia marcescens), O83009 (protein) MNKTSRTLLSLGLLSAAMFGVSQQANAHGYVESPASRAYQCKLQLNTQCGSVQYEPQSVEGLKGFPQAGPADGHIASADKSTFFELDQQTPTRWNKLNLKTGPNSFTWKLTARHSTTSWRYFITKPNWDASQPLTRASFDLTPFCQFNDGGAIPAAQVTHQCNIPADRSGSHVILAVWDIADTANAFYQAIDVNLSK", "quantityKind": "glycan array binding signal (z-score)", "resultNumber": -0.788}
{"binder": "Epa23 (Candida glabrata) (protein) MGSSHHHHHHSSGLVPRGSHMIPNPFEGTINNFPSGCSPNHGLYNRGLTMELYNYSYIHPQSIQSYFNTSTLKKMEKGQCWDPSYLDVNYPRTGYKTHNRFAKVNGIDGILDFEFNPTRSCVPSKGQLPQNYNYPLQFTLSNFTMLLYGYFKPKVTAKHTFTIFADDLLFLNFGAGNAFDCCQQQDTIDDFGNYQAYALWGSDTQQNTLTVNLDANIYYPIRMFYNNRDFKGALNMYFTTDESNTKINDFSGYLFNIPDSSEGCPAHISYETECGNVSG", "quantityKind": "glycan array binding signal (z-score)", "resultNumber": -0.215}
{"binder": "Vd2LysM (Verticillium dahliae) (protein) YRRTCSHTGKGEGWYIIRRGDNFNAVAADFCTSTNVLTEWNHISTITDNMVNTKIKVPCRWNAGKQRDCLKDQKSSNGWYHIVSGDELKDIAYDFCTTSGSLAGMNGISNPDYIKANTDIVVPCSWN", "quantityKind": "glycan array binding signal (z-score)", "resultNumber": 2.17}
{"binder": "Pwp3 (Candida glabrata) (protein) MGSSHHHHHHSSGLVPRGSHMASKNPVDFTTVCQFPDNFSKKPGFLATTARLGLWITGNSYKELLNYPGTFTLTTQQASTTTPNIQLRGTDLFTTIYGLTVYPLYLLVELQGYFVPTQSGMYTFSLTGSDDAAIIFIGNPSTFPCDAFKTWPQATANDITVTDSINPSRTLYMVKGVAYPLRIAYYNGLGNGVLNAAFTDPSGTKRTDWNGYIWQYDQCSTCTYK", "quantityKind": "glycan array binding signal (z-score)", "resultNumber": 0.001}

Values compiled from the supplement of paper PMC8728848.
